Tested on: HeLa
Measurement description: Antiproliferative activity against human HeLa cells after 48 hrs by MTT assay
Format: functional, cell-based
Measure name: IC50 (µM)

As a guide, the following entries are already answered.
- Structure smiles string: "Cc1ccc(/C=N/c2ccccc2)c(C)c1"
  Tgt: "HeLa"
  IC50 / µM: 33
- Structure smiles string: "Clc1ccc(/C=N/c2ccccc2)c(Cl)c1"
  Tgt: "HeLa"
  IC50 / µM: 0.5
- Structure smiles string: "C(=N\\c1ccccc1)/c1ccc2c(c1)OCO2"
  Tgt: "HeLa"
  IC50 / µM: 24.9

[P] FC(F)(F)c1ccc(/C=N/c2ccccc2)cc1
[Q] O=[N+]([O-])c1ccc(/C=N/c2ccccc2)cc1
Please choose the item with the lower IC50 value from this pair: P and Q Pick one; state its label.
P
(P: 0.9 µM, Q: 123 µM)

* * *

Tested on: HeLa
Measurement description: Antiproliferative activity against human HeLa cells after 24 hrs by MTT assay
Assay type: functional, cell-based
Measure name: IC50 (µM)

[1] Clc1ccc(/C=N/c2ccccc2)c(Cl)c1
[2] FC(F)(F)c1ccc(/C=N/c2ccccc2)cc1
[3] Cc1ccc(/C=N/c2ccccc2)c(C)c1
[4] C(=N\c1ccccc1)/c1ccc2c(c1)OCO2
[5] O=[N+]([O-])c1ccc(/C=N/c2ccccc2)cc1
Sort the entries above by IC50, smallest first. Response format: the labels, sorted as the prompt asks.
1, 2, 4, 3, 5
(1: 1.3 µM, 2: 1.9 µM, 4: 42.2 µM, 3: 115 µM, 5: 165 µM)

* * *

Test system: Artemia salina
Measurement description: Toxicity in brine shrimp
Assay type: functional
Test conditions: read-out: ED50 (the source's name)
Measure name: EC50 (µM)
Lab book: enter the figure in µM, no units written.

- Molecule: "CSCCC(/N=C1/c2c(O)cccc2Cc2cc(CO)cc(O)c21)C(=O)O (stereo not given)"
  Measured value: 836
- Molecule: "O=C(O)C/N=C1/c2c(O)cccc2Cc2cc(CO)cc(O)c21"
  Measured value: 1030
- Molecule: "CSCCC(/N=C1/c2c(O)cccc2C([C@@H]2O[C@H](CO)[C@@H](O)[C@H](O)[C@H]2O)c2cc(CO)cc(O)c21)C(=O)O (stereo not given in full)"
  Measured value: 404
- Molecule: "CC(C)CC(/N=C1/c2c(O)cccc2C([C@@H]2O[C@H](CO)[C@@H](O)[C@H](O)[C@H]2O)c2cc(CO)cc(O)c21)C(=O)O (stereo not given in full)"
  Measured value: 32

Then this molecule:
What EC50 value was documented for this molecule, Cc1cc(O)c2c(c1)Cc1cccc(O)c1/C2=N/C(CS)C(=O)O (stereo not given) ?
423

* * *

Tested on: KB
Measurement description: Antiproliferative activity against wild-type human KB cells after 24 hrs by MTS assay
Format: functional, cell-based
Measure name: IC50 (µM)

As a guide, the following entries are already answered.
- Structure smiles string: "Cc1c2ccccc2c(/C=N/NC(=O)NO)c2ccccc12"
  IC50 / µM: 9.3
- Structure smiles string: "O=C(NO)N/N=C/c1ccc([N+](=O)[O-])s1"
  IC50 / µM: 27.2

[A] O=C(NO)N/N=C/c1ccc(O)c(O)c1O
[B] O=C(NO)N/N=C/c1cc(Cl)cc(Cl)c1O
Consider A and B . Which of these has its IC50 at a higher number? Pick one; state its label.
A
(A: 37.5 µM, B: 22.2 µM)
